- Method: Particle size and polydispersity index of nanoparticle compositions (Zetasizer Nano ZS)
- Format: physicochemical
- Measurement Parameters: Table 1A; lipid:DSPC:cholesterol:PEG-DMG 50:10:38.5:1.5 mol %
- Description: A Zetasizer Nano ZS (Malvern Instruments Ltd, Malvern, Worcestershire, UK) can be used to determine the particle size, the polydispersity index (PDI) and the zeta potential of the nanoparticle compositions in 1×PBS in determining particle size and 15 mM PBS in determining zeta potential.
Label fulfilled when Size (nm) >= 90 nm; otherwise not fulfilled.

Example entries begin here.
CCCCCCCCCOC(=O)CCCCCCCN(CCO)CCCCCCCOP(=O)(OCCCCCCCC)OCCCCCCCC = fulfilled
CCCCCCCCCOC(=O)CCCCCCCN(CCCCCCCC(=O)OC(CCCCCCCC)CCCCCCCC)C[C@H](C)O = fulfilled
CCCCCCCCC(C)OC(=O)CCCN(CCO)CCCCCCCC(=O)OC(CCCCCCCC)CCCCCCCC (stereo not shown) = not fulfilled
CCCCCCCCCOC(=O)CCCCCCCN(CCO)CCCCCCCCCC(=O)OC(CCCCCCCC)CCCCCCCC = fulfilled
CCCCCCCCCCCOC(=O)CCCCCN(CCO)CCCCCCCC(=O)OC(CCCCCCCC)CCCCCCCC = not fulfilled

Record CCCCCCCCCOC(=O)CCCCCCCN(CCCCCCCC(=O)OC(CCCCCCCC)CCCCCCCC)CCCOC ; criterion: Size (nm) no lower than 90 nm. Met?
fulfilled

Record CCCCCCCCC(CCCCCCCC)OC(=O)CCCCCCCN(CCO)CCCCCC(=O)OC1CCC(CCCCC)CC1 (stereo not shown) ; criterion: Size (nm) no lower than 90 nm. Met?
not fulfilled

The measured values listed here are drawn from patent US12263248B2.
